# Tested on: CD19 CAR T cells
# protocol: CAR T cell cytokine production (Luminex) under CD19 K562, KIP-1 or CD2/3/28 stimulation
# settings: read-out: Suppression of cytokine production, GMCSF (IC50); K562-CD19 stimulation, 72 h
observed property: IC50

Enquiry: Fill in IC50 for record Nc1nc2cccc(-c3ccc(CN4CCS(=O)(=O)CC4)cc3)n2n1 [GS-829845]
Return: > 10 µM

* * *

# System: CD19 CAR T cells
# protocol: CAR T cell cytokine production (Luminex) under CD19 K562, KIP-1 or CD2/3/28 stimulation
# settings: Homo sapiens, T-cell, 72 h, read-out: Suppression of cytokine production, MIG (IC50), CD3/CD28 stimulation, 72 h
observed property: IC50

Enquiry: Fill in IC50 for record O=C(Nc1nc2cccc(-c3ccc(CN4CCS(=O)(=O)CC4)cc3)n2n1)C1CC1
Return: > 10000 nM

Enquiry: Fill in IC50 for record C[C@@H]1C[C@H]2[C@@H]3CCC4=CC(=O)C=C[C@]4(C)[C@@]3(F)[C@@H](O)C[C@]2(C)[C@@]1(O)C(=O)CO
Return: > 10000 nM

Enquiry: Fill in IC50 for record N#CCC1(n2cc(-c3ncnc4[nH]ccc34)cn2)CN(C2CCN(C(=O)c3ccnc(C(F)(F)F)c3F)CC2)C1
Return: 549 nM

Enquiry: Fill in IC50 for record CC[C@@H]1CN(C(=O)NCC(F)(F)F)C[C@@H]1c1cnc2cnc3[nH]ccc3n12
Return: < 100 nM

* * *

# protocol: in vitro
# settings: human, CAR-T cells
observed property: viability at 8 day, 1000 nM (%)
State the answer as a number, implicitly in %.

Enquiry: Fill in viability at 8 day, 1000 nM for record C[C@H]1C[C@@H]2[C@H]([C@@H](O)C[C@@]3(C)[C@H]2CC[C@]3(O)C(=O)CO)[C@@]2(C)C=CC(=O)C=C12 [methylprednisolone]
Return: 69.1

* * *

# protocol: in vitro
# settings: human
observed property: viability at 0 day, 100 nM (%)
State the answer as a number, implicitly in %.

Enquiry: Fill in viability at 0 day, 100 nM for record C[C@@H]1CCN(C(=O)CC#N)C[C@@H]1N(C)c1ncnc2[nH]ccc12
Return: 75

* * *

# protocol: in vitro
# settings: human
observed property: viability at 0 day, 1000 nM (%)
State the answer as a number, implicitly in %.

Enquiry: Fill in viability at 0 day, 1000 nM for record O=C(Nc1nc2cccc(-c3ccc(CN4CCS(=O)(=O)CC4)cc3)n2n1)C1CC1
Return: 75

* * *

# protocol: in vitro
# settings: human
observed property: viability at 4 day, 1000 nM
Please state the number and follow it with the unit.

Enquiry: Fill in viability at 4 day, 1000 nM for record O=C(Nc1nc2cccc(-c3ccc(CN4CCS(=O)(=O)CC4)cc3)n2n1)C1CC1 [filgotinib]
Return: 59.9%

* * *

# protocol: in vitro
# settings: human, CAR-T cells
observed property: viability at 0 day, 5000 nM (%)
State the answer as a number, implicitly in %.

Enquiry: Fill in viability at 0 day, 5000 nM for record C[C@H]1C[C@@H]2[C@H]([C@@H](O)C[C@@]3(C)[C@H]2CC[C@]3(O)C(=O)CO)[C@@]2(C)C=CC(=O)C=C12 [methylprednisolone]
Return: 75

* * *

# Tested on: Nalm-6 luc
# protocol: CAR-T cell killing assay (luciferase viability of tumor cells)
# settings: E:T ratio 1:3; dose 10 nM
observed property: Mean tumor cell death (%)
State the answer as a number, implicitly in %.

Enquiry: Fill in Mean tumor cell death (%) for record CCS(=O)(=O)N1CC(CC#N)(n2cc(-c3ncnc4[nH]ccc34)cn2)C1
Return: 65.6

Enquiry: Fill in Mean tumor cell death (%) for record CC[C@@H]1CN(C(=O)NCC(F)(F)F)C[C@@H]1c1cnc2cnc3[nH]ccc3n12
Return: 68.1

Enquiry: Fill in Mean tumor cell death (%) for record C[C@@H]1C[C@H]2[C@@H]3CCC4=CC(=O)C=C[C@]4(C)[C@@]3(F)[C@@H](O)C[C@]2(C)[C@@]1(O)C(=O)CO
Return: 34.66

Enquiry: Fill in Mean tumor cell death (%) for record C[C@@H]1CCN(C(=O)CC#N)C[C@@H]1N(C)c1ncnc2[nH]ccc12
Return: 83.2

* * *

# protocol: in vitro
# settings: human
observed property: viability at 8 day, 100 nM (%)
State the answer as a number, implicitly in %.

Enquiry: Fill in viability at 8 day, 100 nM for record C[C@@H]1CCN(C(=O)CC#N)C[C@@H]1N(C)c1ncnc2[nH]ccc12 [tofacitinib]
Return: 64.7

* * *

# protocol: in vitro
# settings: human, CAR-T cells
observed property: viability at 0 day, 1000 nM (%)
State the answer as a number, implicitly in %.

Enquiry: Fill in viability at 0 day, 1000 nM for record C[C@H]1C[C@@H]2[C@H]([C@@H](O)C[C@@]3(C)[C@H]2CC[C@]3(O)C(=O)CO)[C@@]2(C)C=CC(=O)C=C12
Return: 75

* * *

# protocol: in vitro
# settings: human
observed property: viability at 12 day, 1000 nM (%)
State the answer as a number, implicitly in %.

Enquiry: Fill in viability at 12 day, 1000 nM for record O=C(Nc1nc2cccc(-c3ccc(CN4CCS(=O)(=O)CC4)cc3)n2n1)C1CC1
Return: 87.7

* * *

# protocol: in vitro
# settings: human
observed property: viability at 8 day, 1000 nM (%)
State the answer as a number, implicitly in %.

Enquiry: Fill in viability at 8 day, 1000 nM for record O=C(Nc1nc2cccc(-c3ccc(CN4CCS(=O)(=O)CC4)cc3)n2n1)C1CC1 [filgotinib]
Return: 85.1

* * *

# System: phospho-STAT panel (pSTAT3/4/5), CD3+ T cells
# protocol: phospho-STAT induction by IL-6, MesoScale Discovery phospho-STAT panel
# Format: cell-based, human
# settings: lower dose titration, CD3+ T cells, IL-6 + drug 12.5 nM; MSD signal (No stim. 281, IL-6 alone 3624)
observed property: pSTAT4
Give the value as a plain number.

Enquiry: Fill in pSTAT4 for record CCS(=O)(=O)N1CC(CC#N)(n2cc(-c3ncnc4[nH]ccc34)cn2)C1
Return: 1741

Enquiry: Fill in pSTAT4 for record O=C(Nc1nc2cccc(-c3ccc(CN4CCS(=O)(=O)CC4)cc3)n2n1)C1CC1
Return: 3479

Enquiry: Fill in pSTAT4 for record C[C@@H]1CCN(C(=O)CC#N)C[C@@H]1N(C)c1ncnc2[nH]ccc12
Return: 2304

Enquiry: Fill in pSTAT4 for record CC[C@@H]1CN(C(=O)NCC(F)(F)F)C[C@@H]1c1cnc2cnc3[nH]ccc3n12
Return: 1607

* * *

# protocol: in vitro
# settings: human
observed property: viability at 12 day, 500 nM (%)
State the answer as a number, implicitly in %.

Enquiry: Fill in viability at 12 day, 500 nM for record O=C(Nc1nc2cccc(-c3ccc(CN4CCS(=O)(=O)CC4)cc3)n2n1)C1CC1
Return: 91.8

* * *

# Test system: CD19 CAR T cells
# protocol: CAR T cell cytokine production (Luminex) under CD19 K562, KIP-1 or CD2/3/28 stimulation
# settings: read-out: Suppression of cytokine production, MIP-1b (IC50); K562-CD19 stimulation, 72 h
observed property: IC50

Enquiry: Fill in IC50 for record Nc1nc2cccc(-c3ccc(CN4CCS(=O)(=O)CC4)cc3)n2n1
Return: > 10 µM

* * *

# protocol: in vitro
# settings: human
observed property: viability at 12 day, 100 nM (%)
State the answer as a number, implicitly in %.

Enquiry: Fill in viability at 12 day, 100 nM for record C[C@@H]1CCN(C(=O)CC#N)C[C@@H]1N(C)c1ncnc2[nH]ccc12
Return: 85.2

* * *

# System: phospho-STAT panel (pSTAT3/4/5), CD3+ T cells
# protocol: phospho-STAT induction by IL-6, MesoScale Discovery phospho-STAT panel
# Assay type: cell-based, human
# settings: CD3+ T cells, IL-6 + drug 0.5 uM; MSD signal (No stim. 689, IL-6 alone 33641)
observed property: pSTAT3
Give the value as a plain number.

Enquiry: Fill in pSTAT3 for record C[C@@H]1C[C@H]2[C@@H]3CCC4=CC(=O)C=C[C@]4(C)[C@@]3(F)[C@@H](O)C[C@]2(C)[C@@]1(O)C(=O)CO
Return: 28004

Enquiry: Fill in pSTAT3 for record C[C@@H]1CCN(C(=O)CC#N)C[C@@H]1N(C)c1ncnc2[nH]ccc12
Return: 3382

Enquiry: Fill in pSTAT3 for record CC[C@@H]1CN(C(=O)NCC(F)(F)F)C[C@@H]1c1cnc2cnc3[nH]ccc3n12
Return: 2207

Enquiry: Fill in pSTAT3 for record O=C(Nc1nc2cccc(-c3ccc(CN4CCS(=O)(=O)CC4)cc3)n2n1)C1CC1
Return: 15242

Enquiry: Fill in pSTAT3 for record C[C@H]1C[C@@H]2[C@H]([C@@H](O)C[C@@]3(C)[C@H]2CC[C@]3(O)C(=O)CO)[C@@]2(C)C=CC(=O)C=C12
Return: 30901
